- assay protocol: Dissociation constant, pKa of compound
- Type: physicochemical
Collected pKa values appear next to each entry.

{"columns": ["molecule", "pKa"],
 "data": [
  ["Nc1ncc(-c2ncccc2OC(F)(F)F)nc1C(=O)Nc1ncccc1N1CCC(N)CC1", 8.9],
  ["COC1CN(c2cccnc2NC(=O)c2nc(-c3ncccc3OC(F)(F)F)cnc2N)CCC1N (trans isomer)", 8],
  ["Nc1ncc(-c2ncccc2OC(F)(F)F)nc1C(=O)Nc1ncccc1N1CCC(N)C(F)(F)C1 (stereo unspecified)", 6],
  ["Nc1ncc(-c2ncccc2OC(F)(F)F)nc1C(=O)Nc1ncccc1N1CCC(N)C(F)C1 (stereo unspecified)", 7.6],
  ["Nc1ncc(-c2ncccc2C(F)(F)F)nc1C(=O)Nc1ncccc1N1C[C@H]2CC[C@@H](C1)[C@@H]2N", 9.4],
  ["CC1(N)CCN(c2cccnc2NC(=O)c2nc(-c3ncccc3C(F)(F)F)cnc2N)CC1", 9]
]}

---

- assay protocol: Half-life in dog at 0.3 mg/kg, iv measured upto 24 hrs by LC-MS/MS analysis
- Type: ADME, organism-based, Canis lupus familiaris
- reported conditions: in vivo

{"columns": ["compound", "half-life, h"],
 "data": [
  ["CC1(N)CCN(c2cccnc2NC(=O)c2nc(-c3ncccc3C(F)(F)F)cnc2N)CC1 [DAROVASERTIB]", 4.4]
]}

---

- study target: Protein kinase C theta type (Homo sapiens)
- Sequence (Q04759 whole entry): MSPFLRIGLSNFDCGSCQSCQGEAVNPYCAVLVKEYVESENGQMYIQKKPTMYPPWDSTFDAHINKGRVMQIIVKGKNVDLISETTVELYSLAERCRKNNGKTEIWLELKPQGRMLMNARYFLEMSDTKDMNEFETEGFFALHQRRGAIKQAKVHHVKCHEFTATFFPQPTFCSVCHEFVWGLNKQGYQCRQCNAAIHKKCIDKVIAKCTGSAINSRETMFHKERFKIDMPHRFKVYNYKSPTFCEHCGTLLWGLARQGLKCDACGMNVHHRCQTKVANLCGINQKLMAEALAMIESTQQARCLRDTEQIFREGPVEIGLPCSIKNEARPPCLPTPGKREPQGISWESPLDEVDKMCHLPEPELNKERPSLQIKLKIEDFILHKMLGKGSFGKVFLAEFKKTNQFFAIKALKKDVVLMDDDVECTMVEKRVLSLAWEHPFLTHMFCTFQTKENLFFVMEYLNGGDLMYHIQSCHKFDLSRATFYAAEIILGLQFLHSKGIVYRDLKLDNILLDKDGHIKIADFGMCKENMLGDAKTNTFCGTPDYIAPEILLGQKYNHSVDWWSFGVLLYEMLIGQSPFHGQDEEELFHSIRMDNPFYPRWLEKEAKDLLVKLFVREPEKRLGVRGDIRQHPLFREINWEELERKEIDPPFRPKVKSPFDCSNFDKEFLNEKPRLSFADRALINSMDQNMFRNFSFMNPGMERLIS
- assay protocol: Inhibition of PKCtheta (unknown origin)
reported metric: IC50 (nM)

{"columns": ["compound", "reported metric", "unit label", "observed result"],
 "data": [
  ["CN1CCN(c2nc(C3=C(c4c[nH]c5ccccc45)C(=O)NC3=O)c3ccccc3n2)CC1 [SOTRASTAURIN]", "IC50", "nM", 2.1]
]}

---

- study target: Receptor-type tyrosine-protein kinase FLT3 (Homo sapiens)
- Sequence (P36888 whole entry): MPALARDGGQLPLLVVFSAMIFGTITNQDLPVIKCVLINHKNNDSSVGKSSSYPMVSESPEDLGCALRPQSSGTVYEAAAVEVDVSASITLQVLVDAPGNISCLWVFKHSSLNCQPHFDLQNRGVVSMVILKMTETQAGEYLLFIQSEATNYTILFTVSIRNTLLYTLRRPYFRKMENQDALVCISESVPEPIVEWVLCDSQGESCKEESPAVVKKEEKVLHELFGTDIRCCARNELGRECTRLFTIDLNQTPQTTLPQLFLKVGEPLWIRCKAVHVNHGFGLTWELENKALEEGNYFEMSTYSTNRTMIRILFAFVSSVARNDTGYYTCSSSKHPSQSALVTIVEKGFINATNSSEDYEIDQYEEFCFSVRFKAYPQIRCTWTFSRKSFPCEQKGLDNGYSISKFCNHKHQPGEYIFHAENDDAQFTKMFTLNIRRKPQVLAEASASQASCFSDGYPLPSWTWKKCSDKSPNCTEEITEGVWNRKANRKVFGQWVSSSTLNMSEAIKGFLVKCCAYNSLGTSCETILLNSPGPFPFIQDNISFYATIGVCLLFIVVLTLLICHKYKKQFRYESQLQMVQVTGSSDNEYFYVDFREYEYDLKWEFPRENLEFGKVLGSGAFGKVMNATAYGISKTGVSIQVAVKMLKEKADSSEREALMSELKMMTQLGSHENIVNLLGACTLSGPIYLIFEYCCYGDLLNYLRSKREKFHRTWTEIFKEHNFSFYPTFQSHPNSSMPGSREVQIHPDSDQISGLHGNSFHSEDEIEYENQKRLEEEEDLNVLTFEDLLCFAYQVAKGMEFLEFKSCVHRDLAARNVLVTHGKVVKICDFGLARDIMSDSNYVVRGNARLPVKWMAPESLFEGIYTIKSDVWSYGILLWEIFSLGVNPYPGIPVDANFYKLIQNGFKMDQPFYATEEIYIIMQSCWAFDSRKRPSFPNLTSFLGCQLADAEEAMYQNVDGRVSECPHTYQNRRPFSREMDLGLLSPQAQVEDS
pIC50: −log10 of the molar value.
Threshold rule: pIC50 greater than or equal to 7 is yes; below that, no.

{"columns": ["given smiles", "study target", "group label"],
 "data": [
  ["Nc1ncc(-c2ncccc2C(F)(F)F)nc1C(=O)Nc1cccnc1N1CCC(N)CC1", "Receptor-type tyrosine-protein kinase FLT3 (Homo sapiens)", "no"],
  ["Nc1ncc(-c2ncccc2OC(F)(F)F)nc1C(=O)Nc1ccncc1N1CCC(N)CC1", "Receptor-type tyrosine-protein kinase FLT3 (Homo sapiens)", "yes"],
  ["Nc1ncc(-c2ncnc3sccc23)nc1C(=O)Nc1ncccc1N1CCC(N)CC1", "Receptor-type tyrosine-protein kinase FLT3 (Homo sapiens)", "no"],
  ["Nc1ncc(-c2nc(N3CCOCC3)ccc2C(F)(F)F)nc1C(=O)Nc1ncccc1N1CCC(N)CC1", "Receptor-type tyrosine-protein kinase FLT3 (Homo sapiens)", "no"],
  ["Nc1ncc(-c2cccc3[nH]ccc23)nc1C(=O)Nc1ncccc1N1CCC(N)CC1", "Receptor-type tyrosine-protein kinase FLT3 (Homo sapiens)", "yes"]
]}
